- Tested on: A549
- Experiment Notes: CellTiter-Glo cell viability of senescent A549 cancer cells (Example 12, Table 67)
- Format: cell-based, human
- Experimental Conditions: doxorubicin-induced senescent A549 cancer cells, 10 μM test compound, CellTiter-Glo
Mark each entry T if its Survival (%) sits below 60%, and F for all others.

> print(dat)
                                   compound  group.label
1  C[C@@H]1C(=O)C(C#N)=C[C@]2(c3ccccc3)c3c(c(-c4cncnc4)nn3C)CC[C@@H]12            T
2  O=C(O)CC([S-])C(=O)O.[Au+] (centres unmarked) [LX-202, Aurothiomalate, reference compound]            T
3  S=C(N/N=C1\CCCc2cccnc21)N1CCN(c2ccccn2)CC1            T
4  CC(N)(Cc1ccc(O)cc1)C(=O)O (racemic) [LX-3206, Racemetyrosine, reference compound]            T
5    CN(C)CCn1cc(-c2ccc(F)cc2)c(-n2cccc2)n1            F
6  Cc1nnc(NC(=O)c2nc(S(=O)(=O)Cc3ccc(F)cc3)ncc2Cl)s1            F

Find out if reported Survival (%) for CN(Cc1cnc2nc(N)nc(N)c2n1)c1ccc(C(=O)N[C@@H](CCC(=O)O)C(=O)O)cc1 [LX-2901, Methotrexate, reference compound] is less than 60% F

Consider the compound `CN1CC[C@@H](Nc2cccc3c2cc(-c2noc(CNC(=O)c4cnn(C(C)(C)C)c4)n2)n3CC(F)(F)F)[C@@H](F)C1` . Is its Survival (%) strictly less than 60%? F

Is Survival (%) of C[Si](C)(Cc1ccc(F)cc1)CN1CCCCC1.Cl [LX-1407, Silperisone, reference compound] strictly below 60%? F

Quick check: does `C[Se](=O)O` have Survival (%) under 60%? F

Below 60% on Survival (%)? Entry CCOC(=O)[C@@H](N)CCC(=O)N[C@@H](CSCc1ccccc1)C(=O)N[C@@H](C(=O)OCC)c1ccccc1 [LX-2602, Ezatiostat, reference compound] F

A record lists `CS(=O)(=O)c1ncc(Cl)c(C(=O)O)n1` . Is its Survival (%) below 60%? F

----------
- System: foreskin cells in which senescence was induced by doxorubicin
- Experiment Notes: CellTiter-Glo cell viability of doxorubicin-induced senescent foreskin cells (Examples 1-2, 10, 11, 13; Tables 4, 63, 65)
- Type: cell-based, human
- Experimental Conditions: Homo sapiens, 72 h, 30 μM test compound; doxorubicin-induced senescent foreskin cells; CellTiter-Glo; 0 μM = 100; read-out: Survival (%)
Would you kindly list viability at 30 µM for each of these compounds?
Give bare numbers, in %.

Completed entries (count: 5):
Compound	viability at 30 µM, %
Cc1c(O)cccc1C(=O)N[C@@H](CSc1ccccc1)[C@H](O)CN1C[C@H]2CCCC[C@H]2C[C@H]1C(=O)NC(C)(C)C [LX-1905, Nelfinavir, reference compound]	13.2
Clc1ccc(C(c2ccccc2Cl)C(Cl)Cl)cc1 (stereo not drawn) [LX-1301, Mitotane, reference compound]	0.4
Cc1ccc(C(=O)C(C)CN2CCCCC2)cc1 (stereo not drawn) [LX-1403, Tolperisone, reference compound]	18.3
COc1cc2nccc(Oc3ccc(NC(=O)NC4CC4)c(Cl)c3)c2cc1C(N)=O [LX-2803, Lenvatinib, reference compound]	3.6
Cc1ccc(-c2c(C#N)c(N)n3c(nc4ccccc43)c2C#N)cc1	22.8

Dear reader, for each entry below, please note its viability at 30 µM.
1. CCCCC/C=C\C/C=C\C/C=C\C/C=C\CCCC(=O)O
2. CCN(CC)C(=S)SSC(=S)N(CC)CC [LX-1601, Disulfiram, reference compound]
3. CC/C=C\C/C=C\C/C=C\C/C=C\C/C=C\C/C=C\CCC(=O)O
4. O=C(O)c1cc(/N=N/c2ccc(S(=O)(=O)Nc3ccccn3)cc2)ccc1O [LX-1302, Sulfasalazine, reference compound]

48.3
61.4
49.6
79.6

I have 4 compounds here; please give me viability at 30 µM for each one.
1. C[C@H](CN1CCCC1)C(=O)c1ccc(C(F)(F)F)cc1 [LX-1402, Lanperisone, reference compound]
2. CCn1c(C#CCNc2ccccc2)cc2cc(CNC)ccc21
3. Cc1ccc(Nc2nccc(N(C)c3ccc4c(C)n(C)nc4c3)n2)cc1S(N)(=O)=O [LX-3301, Pazopanib, reference compound]
4. Cc1c(-c2ccc(-c3ccccc3F)cc2)nc2ccc(F)cc2c1C(=O)O [LX-1602, Brequinar, reference compound]

2.1
6.9
39.5
36.4

Required: viability at 30 µM, one value per compound below.
1. CCn1c2ccccc2c2cc(NC(=O)COC(=O)C3CCC(=O)N3)ccc21 (stereo not drawn)
2. CCN(CC)c1nc2c(C(=O)O)c(O)c(I)c(-n3cccc3)c2s1

[23.9, 7.5]
